EXPERIMENTAL_DETAILS: Biodistribution in Daudi xenograft bearing CB-17 SCID mice
Assay type: in vivo
CONDITION_NOTES: mouse, iv, total radioactivity, Muscle, 1 h p.i., CB-17 SCID female mice, read-out: % iD/g Muscle
Positions of bridges follow the written chain, without caps; N, C: chain ends. Non-standard residues stand in square brackets, D forms with d. Residues, ends and D or L forms follow the SMILES beside them. Chains are numbered I, II in the order given. *: point of attachment. 2Nal = N[C@@H](Cc1ccc2ccccc2c1)C(=O)O; dNMeOrn = CN[C@H](CCCN)C(=O)O; Mercaptoacetyl = O=C(CS)*; 4Abz = Nc1ccc(C(=O)O)cc1
ASSAY_ENDPOINT: tissue uptake at 1 h (%ID/g)
Give the value in %ID/g but do not write %ID/g after it.

# tissue uptake at 1 h of C[C@@H](NC(=O)[C@@H](CCCNC(=N)N)NC(=O)[C@@H](CO)NC(=O)[C@@H](CO)NC(=O)[C@@H](CO)NC(=O)CS)C(=O)Nc1ccc(C(=O)NCCC[C@@H]2C(=O)N[C@@H](CCCNC(=N)N)C(=O)N[C@@H](Cc3ccc4ccccc4c3)C(=O)NCC(=O)N[C@H](Cc3ccc(O)cc3)C(=O)N2C)cc1 [Tc-CXCR4-1] (I: Mercaptoacetyl-[dS][dS][dS][dR][dA][4Abz] / II: cyclo([dY][dNMeOrn]R[2Nal]G); amide I:C-II:2) = 0.16

----------
EXPERIMENTAL_DETAILS: Biodistribution in Daudi xenograft bearing CB-17 SCID mice
Assay type: in vivo
CONDITION_NOTES: mouse, iv, total radioactivity, Intestine, 1 h p.i., CB-17 SCID female mice, read-out: % iD/g Intestine
Positions of bridges follow the written chain, without caps; N, C: chain ends. Non-standard residues stand in square brackets, D forms with d. Residues, ends and D or L forms follow the SMILES beside them. Chains are numbered I, II in the order given. *: point of attachment. 2Nal = N[C@@H](Cc1ccc2ccccc2c1)C(=O)O; dNMeOrn = CN[C@H](CCCN)C(=O)O; Mercaptoacetyl = O=C(CS)*; 4Abz = Nc1ccc(C(=O)O)cc1
ASSAY_ENDPOINT: tissue uptake at 1 h (%ID/g)
Give the value in %ID/g but do not write %ID/g after it.

# tissue uptake at 1 h of C[C@@H](NC(=O)[C@@H](CCCNC(=N)N)NC(=O)[C@@H](CO)NC(=O)[C@@H](CO)NC(=O)[C@@H](CO)NC(=O)CS)C(=O)Nc1ccc(C(=O)NCCC[C@@H]2C(=O)N[C@@H](CCCNC(=N)N)C(=O)N[C@@H](Cc3ccc4ccccc4c3)C(=O)NCC(=O)N[C@H](Cc3ccc(O)cc3)C(=O)N2C)cc1 [Tc-CXCR4-1] (I: Mercaptoacetyl-[dS][dS][dS][dR][dA][4Abz] / II: cyclo([dY][dNMeOrn]R[2Nal]G); amide I:C-II:2) = 1.12

----------
STUDY_SYSTEM: CXCR4 (Homo sapiens)
Sequence (P61073 whole entry): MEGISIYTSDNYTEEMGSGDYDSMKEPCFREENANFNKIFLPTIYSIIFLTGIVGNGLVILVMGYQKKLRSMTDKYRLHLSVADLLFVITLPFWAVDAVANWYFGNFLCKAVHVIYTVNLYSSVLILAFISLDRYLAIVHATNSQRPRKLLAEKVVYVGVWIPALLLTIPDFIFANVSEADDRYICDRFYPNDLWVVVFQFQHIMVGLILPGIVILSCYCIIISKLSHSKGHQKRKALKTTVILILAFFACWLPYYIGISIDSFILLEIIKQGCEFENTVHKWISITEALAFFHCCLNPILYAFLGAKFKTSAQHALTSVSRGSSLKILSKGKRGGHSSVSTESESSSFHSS
EXPERIMENTAL_DETAILS: Determination of IC50: competition with 125I-Fc-131 on CXCR4-positive Jurkat cells;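 also: test compound at 10^−5 to 10^−11 M competed for 2 h at 8 °C with the radioligand on 400,000 cells per well, bound versus free activity measured by γ-counting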
Format: binding
Set-up: CXCR4-positive Jurkat T lymphocyte cells were grown in Gibco's RPMI 1640 GlutaMAX medium; endogenous in cells; host or cells: Jurkat T lymphocyte cells (whole cells in suspension, 400.000 per tube)
CONDITION_NOTES: unlabeled or cold (natGa/natLu) compound vs 125I-Fc-131, Jurkat cells; read-out: IC50
Non-standard residues stand in square brackets, D forms with d. Residues, ends and D or L forms follow the SMILES beside them. Groups on a side chain read outwards from the residue. *: point of attachment. DOTA = O=C(O)CN1CCN(CC(=O)O)CCN(CC(=O)*)CCN(CC(=O)O)CC1; dTyr(3-I) = N[C@H](Cc1ccc(O)c(I)c1)C(=O)O; 2Nal = N[C@@H](Cc1ccc2ccccc2c1)C(=O)O; dCit = NC(=O)NCCC[C@@H](N)C(=O)O; dNMeOrn = CN[C@H](CCCN)C(=O)O; 4Amb = NCc1ccc(C(=O)O)cc1; 4Abz = Nc1ccc(C(=O)O)cc1; dDap = NC[C@@H](N)C(=O)O
Entries and their measured IC50 follow.
Give the value in µM but do not write µM after it.

C[C@@H](NC(=O)[C@@H](CCCNC(=N)N)NC(=O)[C@@H](CN)NC(=O)CN1CCN(CC(=O)O)CCN(CC(=O)O)CCN(CC(=O)O)CC1)C(=O)NCc1ccc(C(=O)NCCC[C@@H]2C(=O)N[C@@H](CCCNC(=N)N)C(=O)N[C@@H](Cc3ccc4ccccc4c3)C(=O)NCC(=O)N[C@H](Cc3ccc(O)c(I)c3)C(=O)N2C)cc1 [CXCR4-DOTA-2 [Lu]] (cyclo([dTyr(3-I)][dNMeOrn]([4Amb-dA-dR-dDap-DOTA])R[2Nal]G)) | 0.00647

Query C[C@@H](NC(=O)[C@@H](CCCNC(=N)N)NC(=O)[C@@H](CN)NC(=O)CN1CCN(CC(=O)O)CCN(CC(=O)O)CCN(CC(=O)O)CC1)C(=O)NCc1ccc(C(=O)NCCC[C@@H]2C(=O)N[C@@H](CCCNC(=N)N)C(=O)N[C@@H](Cc3ccc4ccccc4c3)C(=O)NCC(=O)N[C@H](Cc3ccc(O)cc3)C(=O)N2C)cc1 [CXCR4-DOTA-1] (cyclo([dY][dNMeOrn]([4Amb-dA-dR-dDap-DOTA])R[2Nal]G)) on CXCR4 (Homo sapiens); IC50 returned: 0.0121

Query C[C@@H](NC(=O)[C@@H](CCCNC(N)=O)NC(=O)[C@@H](CN)NC(=O)CN1CCN(CC(=O)O)CCN(CC(=O)O)CCN(CC(=O)O)CC1)C(=O)Nc1ccc(C(=O)NCCC[C@@H]2C(=O)N[C@@H](CCCNC(=N)N)C(=O)N[C@@H](Cc3ccc4ccccc4c3)C(=O)NCC(=O)N[C@H](Cc3ccc(O)cc3)C(=O)N2C)cc1 [CXCR4-DOTA-5] (cyclo([dY][dNMeOrn]([4Abz-dA-dCit-dDap-DOTA])R[2Nal]G)) on CXCR4 (Homo sapiens); IC50 returned: 0.0213
